Source listed as the OPERA property sets (Mansouri et al. 2018).

Binarize melting point at 200 °C; below is 1.0, at or above is 0.0.

Below are worked cases with known answers.
Molecule	Label class
O=C1c2ccc(O)cc2OC(c2ccc(O)c(O)c2)C1O (stereo unspecified)	0.0
CCNc1nc(NC(C)(C)C)nc(OC)n1	1.0

Please let me know if "CC(=O)Nc1ccc(O)cc1" shows melting point below 200 °C. 1.0

Answer whether the molecule "CCCCCCCCCC1CCCCC1" has melting point strictly less than 200 °C 1.0

Bench note: check whether "C[C@]12CC[C@@H](O)C[C@@H]1CC[C@@H]1[C@@H]2[C@H](O)C[C@]2(C)C(=O)CC[C@@H]12" shows melting point below 200 °C 0.0

In plain terms, does "O=C1C(O)=C(C2CCCCC2)C(=O)c2ccccc21" come in under 200 °C for melting point? 1.0
